% of CUG foci free nuclei (Vehicle): recorded values
- Test system: CUG foci in primary DM1 patient myoblasts
- procedure-details: Single-cut screening: FISH staining of CUG RNA foci
- Assay type: cell-based, human
- measurement-conditions: single sgRNA; primary DM1 patient myoblasts; vehicle

substance	system-tested	% of CUG foci free nuclei (Vehicle), %
CCTGCAGTTTGCCCATCCACGT (guide RNA; chemistry not fully specified) [SluD11]	CUG foci in primary DM1 patient myoblasts	14.54
gggcTCGAAGGGTCCTTGTAGC (as printed in the source, key not given here) [SluU64]	CUG foci in primary DM1 patient myoblasts	37.58
GGTCCTGTAGCCTGTCAGCGAG (guide RNA; chemistry not fully specified) [SluD69]	CUG foci in primary DM1 patient myoblasts	10.88
ggggcTCGAAGGGTCCTTGTAG (as printed in the source, key not given here) [SluU63]	CUG foci in primary DM1 patient myoblasts	44.78
tccctccccggccGCTAGGGGG (guide RNA; as printed in the source, key not given here) [SluU43]	CUG foci in primary DM1 patient myoblasts	7.64
GGGTCGGGGGTGGGGGTCCTAG (guide RNA; chemistry not fully specified) [SluD87]	CUG foci in primary DM1 patient myoblasts	15.16
CTCCGAGAGCAGCGCAAGTGAG (guide RNA; chemistry not fully specified) [SluD52]	CUG foci in primary DM1 patient myoblasts	7.59
SluD101: downstream SluCas9 sgRNA, presumably SEQ ID NO 167; sequence not in the shown tables (guide AGTCCAGAGCTTTGGGCAGATG; listed as DNA, chemistry not fully specified)	CUG foci in primary DM1 patient myoblasts	21.35
gcccctccctccccggccGCTA (guide RNA; as printed in the source, key not given here) [SluU48]	CUG foci in primary DM1 patient myoblasts	20.76
AGATGGAGGGCCTTTTATTCGC (guide RNA; chemistry not fully specified) [SluD99]	CUG foci in primary DM1 patient myoblasts	22.87
CACCCCCGACCCTCGCGAATAA (guide RNA; chemistry not fully specified) [SluD90]	CUG foci in primary DM1 patient myoblasts	7.35
CGCCCAGCTCCAGTCCTGTGAT (guide RNA; chemistry not fully specified) [SluU27]	CUG foci in primary DM1 patient myoblasts	7.71
CTTTTATTCGCGAGGGTCGGGG (guide RNA; chemistry not fully specified) [SluD93]	CUG foci in primary DM1 patient myoblasts	11.34
CCGGGCCCGCCCCCTAGCggcc (guide RNA; as printed in the source, key not given here) [SluU37]	CUG foci in primary DM1 patient myoblasts	8.09

* * *

% of CAG foci positive nuclei (Vehicle): recorded values
- Tested on: CAG foci in primary DM1 patient myoblasts
- procedure-details: Single-cut screening: CAG foci staining
- Assay type: cell-based, human
- measurement-conditions: single sgRNA, vehicle
property: % of CAG foci positive nuclei (Vehicle) (%)

> print(dat)
                                  substance  observed.measurement
1  gccccgttcgccggccgcggac (guide GCCCCGTTCGCCGGCCGCGGAC; listed as DNA, chemistry not fully specified) [SluU58]                  1.35
2  TTCTTGTGCATGACGCCCTGCT (guide RNA; chemistry not fully specified) [SluD30]                  2.66
3  TTTATTCGCGAGGGTCGGGGGT (guide RNA; chemistry not fully specified) [SluD91]                     1
4  GTGGATGGGCAAACTGCAGGCC (guide RNA; chemistry not fully specified) [SluD13]                  4.07
5  GCCGAAGCGGGCGGAGCCGGCT (guide RNA; chemistry not fully specified) [SluD57]                  2.09
6  GGCCCGGATCACAGGACTGGAG (guide RNA; chemistry not fully specified) [SluU31]                  0.94
7  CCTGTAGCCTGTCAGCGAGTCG (listed as DNA, chemistry not fully specified) [SluD68]                   2.3
